# protocolDescription: growth suppression of beta-catenin knockout HCT116, pilot screen, human colon tumor cells (AID 823);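 note: 0% = wells killed by 20 µM Hyamine and 100% = untreated DMSO cell wells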
# conditionLabel: CellTiter-Glo, 60 h, at 10 µM, active compounds read low
Results filed as inconclusive are left out. Activity calls are given as the source filed them.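 Rule for the calls: active = cell viability at or below a set limit in both duplicate runs, the limit being the all-compound median minus 4 SD (cut at about 23% in these data, passing the limit was not always enough); inconclusive = no clear call, values can overlap the other calls; inactive = the rest.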
measuredProperty: viability

So, Cc1ccc(-n2c(C)cc(C(=O)OCC(=O)N(C)C3CCS(=O)(=O)C3)c2C)cc1 (stereo unspecified) ? Its viability was 91.7% (inactive)

// recorded viability for O=C(NCc1ccccc1Cl)c1cnc2n(c1=O)CCS2 : 99.9% (inactive)

Notebook: CCOC(=O)c1csc(NC(=O)C(C)(C)C)n1 , viability read as 105% (inactive)

Looking up C/C(NCCN1CCOCC1)=C(\C#N)C(N)=O , I see its viability listed as 105% (inactive)

Sample CCOC(=O)N1CCN(C(=O)Cn2ncc3ccccc32)CC1 ; viability observed: 105% (inactive)

Lab note: measured viability of Cc1ccc(-c2nn3c(C)nnc3s2)cc1NC(=O)COc1ccc(Cl)cc1 was 93.8% (inactive)

In plain terms, CCOC(=O)N1CCN(C(=O)CN(c2ccc(Oc3ccccc3)cc2)S(C)(=O)=O)CC1 has a documented viability of 75.2% (inactive)

Just so you know, measured viability for O=C(c1cc2nc(-c3ccco3)cc(C(F)(F)F)n2n1)N1CCCCCC1 came out at 86.3% (inactive)

Record Cn1c(SCC(=O)Nc2ccccc2F)nnc1-c1cccnc1 . Reported viability: 100% (inactive)

Notebook: N#Cc1ccc(Oc2cccc(C(=O)O)c2)cc1C#N , viability read as 94.8% (inactive)

Sure, the documented viability for CCOC(=O)C1CCN(CC(O)COc2ccc(C(C)(C)CC)cc2)CC1 (stereo unspecified) is 65.6% (inactive)
